The measurements presented in this section are drawn from the supplement of paper PMC11246515.

Listed below: total protein half-life in vivo values for each entry.
assay: total protein half-life in vivo (active degradation + dilution); higher = more stable protein; settings: wild type E. coli NCM3722; growth: C-lim chemostat; doubling time 12 h
endpoint.name: total protein half-life in vivo

seq | measurement
MKTLILFSTRDGQTREIASYLASELKELGIQADVANVHRIEEPQWENYDRVVIGASIRYGHYHSAFQEFVKKHATRLNSMPSAFYSVNLVARKPEKRTPQTNSYARKFLMNSQWRPDRCAVIAGALRYPRYRWYDRFMIKLIMKMSGGETDTRKEVVYTDWEQVANFAREIAHLTDKPTLK [P0ACB4] | 9.62 h
MSIKTIKYFSTIIVAVVAVLAGWWLWNYYMQSPWTRDGKIRAEQVSITPQVSGRIVELNIKDNQLVNAGDLLLTIDKTPFQIAELNAQAQLAKAQSDLAKANNEANRRRHLSQNFISAEELDTANLNVKAMQASVDAAQATLKQAQWQLAQTEIRAPVSGWVTNLTTRIGDYADTGKPLFALVDSHSFYVIGYFEETKLRHIREGAPAQITLYSDNKTLQGHVSSIGRAIYDQSVESDSSLIPDVKPNVPWVRLAQRVPVRFALDKVPGDVTLVSGTTCSIAVGQ | 11.2 h
MKTGMFTCGHQRLPIEHAFRDASELGYDGIEIWGGRPHAFAPDLKAGGIKQIKALAQTYQMPIIGYTPETNGYPYNMMLGDEHMRRESLDMIKLAMDMAKEMNAGYTLISAAHAGYLTPPNVIWGRLAENLSELCEYAENIGMDLILEPLTPYESNVVCNANDVLHALALVPSPRLFSMVDICAPYVQAEPVMSYFDKLGDKLRHLHIVDSDGASDTHYIPGEGKMPLRELMRDIIERGYEGYCTVELVTMYMNEPRLYARQALERFRALLPEDER | 6.86 h
